# Test system: erythrocytes
# procedure summary: Hemolytic activity (HD10/HD50)
# Type: cell-based
Numbered stars: 1 amine (or outer) side, 2 acyl side, 3 side chain; on linkers, the order of the positions; unused ones are H or OH. Square brackets hold non-standard residues; d marks the D form. Peptide text beside a SMILES is read from it. X1 = CC(C)[C@H](C)N(CC(=O)[*:2])[*:1]; Nspe = C[C@H](NCC(=O)O)c1ccccc1; Nlys = NCCCCNCC(=O)O
For each of the compounds below, state its HD10 (hemolytic activity).

// below: answered compounds
{"compound": "C[C@H](NCC(=O)N(CC(=O)N(CCCCN)CC(=O)N(CC(=O)N(CCCCN)CC(=O)N(CC(=O)N(CCCCN)CC(=O)N(CC(=O)N(CC(=O)N(CC(=O)N(CC(=O)N(CCCCN)CC(N)=O)[C@@H](C)c1ccccc1)[C@@H](C)c1ccccc1)[C@@H](C)c1ccccc1)[C@@H](C)c1ccccc1)[C@@H](C)c1ccccc1)[C@@H](C)c1ccccc1)[C@@H](C)c1ccccc1)c1ccccc1 [Peptoid 1scr, H-(Nspe)2-(NLys-Nspe)3-(Nspe)3-NLys-NH2] (H-[Nspe][Nspe][Nlys][Nspe][Nlys][Nspe][Nlys][Nspe][Nspe][Nspe][Nspe][Nlys]-NH2)", "HD10 (hemolytic activity)": 64}
{"compound": "C[C@@H](c1ccccc1)N(CC(N)=O)C(=O)CN(C(=O)CN(CCCCN)C(=O)CN(Cc1ccccc1)C(=O)CN(Cc1ccccc1)C(=O)CN(CCCCN)C(=O)CN(C(=O)CN(C(=O)CN(CCCCN)C(=O)CN(Cc1ccccc1)C(=O)CN(Cc1ccccc1)C(=O)CNCCCCN)[C@@H](C)c1ccccc1)[C@@H](C)c1ccccc1)[C@@H](C)c1ccccc1 [1-Npm2,3,8,9, H-(NLys-Npm-Npm-NLys-Nspe-Nspe)2-NH2]", "HD10 (hemolytic activity)": 39}

Now consider the entry below.
The compound listed as CC(C)[C@H](C)N(CC(=O)N(CC(=O)N(CCCCN)CC(=O)N(CC(=O)N(CC(=O)N(CCCCN)CC(=O)N(CC(=O)N(CC(=O)N(CCCCN)CC(=O)N(CC(=O)N(CC(N)=O)[C@@H](C)c1ccccc1)[C@@H](C)C(C)C)[C@@H](C)c1ccccc1)[C@@H](C)C(C)C)[C@@H](C)c1ccccc1)[C@@H](C)C(C)C)[C@@H](C)c1ccccc1)C(=O)CNCCCCN [1-Nsdp2.5.8.11, H-(NLys-Nsdp-Nspe)4-NH2] (H-[Nlys][X1][Nspe][Nlys][X1][Nspe][Nlys][X1][Nspe][Nlys][X1][Nspe]-NH2) has a reported HD10 (hemolytic activity) of 111

---

For each of the molecules below, state its MIC.
# Tested on: P. aeruginosa 9 (MDR)
# procedure summary: microbe, parasite or virus in culture
# condition label: 9 (MDR)
Square brackets hold non-standard residues; d marks the D form. Peptide text beside a SMILES is read from it. Nspe = C[C@H](NCC(=O)O)c1ccccc1; Nphe = O=C(O)CNCc1ccccc1; Nlys = NCCCCNCC(=O)O
Give bare numbers, in µg/mL.

Kindly give each listed record's MIC.
1. C[C@@H](c1ccccc1)N(CC(N)=O)C(=O)CN(C(=O)CN(CCCCN)C(=O)CN(C(=O)CN(C(=O)CN(CCCCN)C(=O)CN(C(=O)CN(C(=O)CN(CCCCN)C(=O)[C@@H]1CCCN1C(=O)CN(C(=O)CNCCCCN)[C@@H](C)c1ccccc1)[C@@H](C)c1ccccc1)[C@@H](C)c1ccccc1)[C@@H](C)c1ccccc1)[C@@H](C)c1ccccc1)[C@@H](C)c1ccccc1 [Peptoid 1-Pro3, H-NLys-Nspe-L-Pro-(NLys-Nspe-Nspe)3-NH2] (H-[Nlys][Nspe]P[Nlys][Nspe][Nspe][Nlys][Nspe][Nspe][Nlys][Nspe][Nspe]-NH2)
2. C[C@@H](c1ccccc1)N(CC(N)=O)C(=O)CN(Cc1ccccc1)C(=O)CN(CCCCN)C(=O)CN(C(=O)CN(Cc1ccccc1)C(=O)CN(CCCCN)C(=O)CN(C(=O)CN(Cc1ccccc1)C(=O)CN(CCCCN)C(=O)CN(C(=O)CN(Cc1ccccc1)C(=O)CNCCCCN)[C@@H](C)c1ccccc1)[C@@H](C)c1ccccc1)[C@@H](C)c1ccccc1 [1-Npm2,5,8,11, H-(NLys-Npm-Nspe)4-NH2] (H-[Nlys][Nphe][Nspe][Nlys][Nphe][Nspe][Nlys][Nphe][Nspe][Nlys][Nphe][Nspe]-NH2)

1: 128; 2: 64

Kindly give each listed record's MIC.
1. C[C@@H](c1ccccc1)N(CC(N)=O)C(=O)CN(C(=O)CN(CCCCN)C(=O)CN(Cc1ccccc1)C(=O)CN(Cc1ccccc1)C(=O)CN(CCCCN)C(=O)CN(C(=O)CN(C(=O)CN(CCCCN)C(=O)CN(Cc1ccccc1)C(=O)CN(Cc1ccccc1)C(=O)CNCCCCN)[C@@H](C)c1ccccc1)[C@@H](C)c1ccccc1)[C@@H](C)c1ccccc1
2. CC(C)[C@H](C)N(CC(N)=O)C(=O)CN(C(=O)CN(CCCCN)C(=O)CN(C(=O)CN(C(=O)CN(CCCCN)C(=O)CN(C(=O)CN(C(=O)CN(CCCCN)C(=O)CN(C(=O)CN(C(=O)CNCCCCN)[C@@H](C)C(C)C)[C@@H](C)C(C)C)[C@@H](C)C(C)C)[C@@H](C)C(C)C)[C@@H](C)C(C)C)[C@@H](C)C(C)C)[C@@H](C)C(C)C

1. 64
2. 256

The molecule listed as C[C@H](NCC(=O)N(CCCCN)CC(=O)N(CC(=O)N(CCCCN)CC(=O)N(CCCCN)CC(=O)N(CC(=O)N(CC(=O)N(CCCCN)CC(=O)N(CC(=O)N(CCCCN)CC(=O)N(CCCCN)CC(=O)N(CC(N)=O)[C@@H](C)c1ccccc1)[C@@H](C)c1ccccc1)[C@@H](C)c1ccccc1)[C@@H](C)c1ccccc1)[C@@H](C)c1ccccc1)c1ccccc1 [1B-NLys4,10, H-(Nspe-NLys-Nspe-NLys-NLys-Nspe)2-NH2] (H-[Nspe][Nlys][Nspe][Nlys][Nlys][Nspe][Nspe][Nlys][Nspe][Nlys][Nlys][Nspe]-NH2) has a reported MIC of 128

---

For each of the molecules below, state its MIC.
# Test system: E. faecalis F43559 (VRE)
# procedure summary: microbe, parasite or virus in culture
# condition label: F43559 (VRE)
Numbered stars: 1 amine (or outer) side, 2 acyl side, 3 side chain; on linkers, the order of the positions; unused ones are H or OH. Square brackets hold non-standard residues; d marks the D form. Peptide text beside a SMILES is read from it. X1 = CC(C)[C@H](C)N(CC(=O)[*:2])[*:1]; Nspe = C[C@H](NCC(=O)O)c1ccccc1; Nphe = O=C(O)CNCc1ccccc1; Nlys = NCCCCNCC(=O)O
Numbers only, in µg/mL.

// below: answered molecules
{"molecule": "C[C@@H](c1ccccc1)N(CC(N)=O)C(=O)CN(C(=O)CN(CCCCN)C(=O)CN(C(=O)CN(C(=O)CN(CCCCN)C(=O)[C@@H]1CCCN1C(=O)CN(C(=O)CN(CCCCN)C(=O)CN(C(=O)CN(C(=O)CNCCCCN)[C@@H](C)c1ccccc1)[C@@H](C)c1ccccc1)[C@@H](C)c1ccccc1)[C@@H](C)c1ccccc1)[C@@H](C)c1ccccc1)[C@@H](C)c1ccccc1 [Peptoid 1-Pro6] (H-[Nlys][Nspe][Nspe][Nlys][Nspe]P[Nlys][Nspe][Nspe][Nlys][Nspe][Nspe]-NH2)", "unit symbol": "µg/mL", "reported value": 8}
{"molecule": "CC(C)[C@H](C)N(CC(N)=O)C(=O)CN(C(=O)CN(CCCCN)C(=O)CN(C(=O)CN(C(=O)CN(CCCCN)C(=O)CN(C(=O)CN(C(=O)CN(CCCCN)C(=O)CN(C(=O)CN(C(=O)CNCCCCN)[C@@H](C)C(C)C)[C@@H](C)C(C)C)[C@@H](C)C(C)C)[C@@H](C)C(C)C)[C@@H](C)C(C)C)[C@@H](C)C(C)C)[C@@H](C)C(C)C", "unit symbol": "µg/mL", "reported value": 128}
{"molecule": "CC(C)[C@H](C)N(CC(=O)N(CC(=O)N(CCCCN)CC(=O)N(CC(=O)N(CC(=O)N(CCCCN)CC(=O)N(CC(=O)N(CC(=O)N(CCCCN)CC(=O)N(CC(=O)N(CC(N)=O)[C@@H](C)c1ccccc1)[C@@H](C)C(C)C)[C@@H](C)c1ccccc1)[C@@H](C)C(C)C)[C@@H](C)c1ccccc1)[C@@H](C)C(C)C)[C@@H](C)c1ccccc1)C(=O)CNCCCCN [1-Nsdp2.5.8.11, H-(NLys-Nsdp-Nspe)4-NH2] (H-[Nlys][X1][Nspe][Nlys][X1][Nspe][Nlys][X1][Nspe][Nlys][X1][Nspe]-NH2)", "unit symbol": "µg/mL", "reported value": 32}
{"molecule": "C[C@@H](c1ccccc1)N(CC(=O)N(CC(=O)N(CCCCN)CC(=O)N(CC(=O)N(CC(=O)N(CCCCN)CC(=O)N(CC(=O)N(CC(=O)N(CCCCN)CC(=O)N(CC(=O)N(CC(N)=O)Cc1ccccc1)Cc1ccccc1)Cc1ccccc1)Cc1ccccc1)Cc1ccccc1)Cc1ccccc1)Cc1ccccc1)C(=O)CNCCCCN [Peptoid 1ach-Nspe2, H-(NLys-Nspe-Npm)- (NLys-Npm-Npm)3-NH2] (H-[Nlys][Nspe][Nphe][Nlys][Nphe][Nphe][Nlys][Nphe][Nphe][Nlys][Nphe][Nphe]-NH2)", "unit symbol": "µg/mL", "reported value": 16}
{"molecule": "C[C@@H](c1ccccc1)N(CC(N)=O)C(=O)CN(CCCCN)C(=O)CN(CCCCN)C(=O)CN(C(=O)CN(C(=O)CN(CCCCN)C(=O)CN(C(=O)CN(CCCCN)C(=O)CN(CCCCN)C(=O)CN(C(=O)CN(C(=O)CNCCCCN)[C@@H](C)c1ccccc1)[C@@H](C)c1ccccc1)[C@@H](C)c1ccccc1)[C@@H](C)c1ccccc1)[C@@H](C)c1ccccc1 [1-NLys5,11, H-(NLys-Nspe-Nspe-NLys-NLys-Nspe)2-NH2] (H-[Nlys][Nspe][Nspe][Nlys][Nlys][Nspe][Nlys][Nspe][Nspe][Nlys][Nlys][Nspe]-NH2)", "unit symbol": "µg/mL", "reported value": 256}
{"molecule": "CC(C)[C@H](C)N(CC(=O)N(CCCCN)CC(=O)N(CC(=O)N(CC(=O)N(CCCCN)CC(=O)N(CC(=O)N(CC(=O)N(CCCCN)CC(=O)N(CC(=O)N(CC(N)=O)[C@@H](C)c1ccccc1)[C@@H](C)c1ccccc1)[C@@H](C)C(C)C)[C@@H](C)C(C)C)[C@@H](C)c1ccccc1)[C@@H](C)c1ccccc1)C(=O)CN(C(=O)CNCCCCN)[C@@H](C)C(C)C [1-Nsdp2,3,8,9, H-(NLys-Nsdp-Nsdp-NLys-Nspe-Nspe)2-NH2] (H-[Nlys][X1][X1][Nlys][Nspe][Nspe][Nlys][X1][X1][Nlys][Nspe][Nspe]-NH2)", "unit symbol": "µg/mL", "reported value": 16}
{"molecule": "C[C@@H](c1ccccc1)N(CC(N)=O)C(=O)CN(Cc1ccccc1)C(=O)CN(CCCCN)C(=O)CN(C(=O)CN(Cc1ccccc1)C(=O)CN(CCCCN)C(=O)CN(C(=O)CN(Cc1ccccc1)C(=O)CN(CCCCN)C(=O)CN(C(=O)CN(Cc1ccccc1)C(=O)CNCCCCN)[C@@H](C)c1ccccc1)[C@@H](C)c1ccccc1)[C@@H](C)c1ccccc1 [1-Npm2,5,8,11, H-(NLys-Npm-Nspe)4-NH2] (H-[Nlys][Nphe][Nspe][Nlys][Nphe][Nspe][Nlys][Nphe][Nspe][Nlys][Nphe][Nspe]-NH2)", "unit symbol": "µg/mL", "reported value": 4}
{"molecule": "C[C@H](NCC(=O)N(CCCCN)CC(=O)N(CC(=O)N(CCCCN)CC(=O)N(CCCCN)CC(=O)N(CC(=O)N(CC(=O)N(CCCCN)CC(=O)N(CC(=O)N(CCCCN)CC(=O)N(CCCCN)CC(=O)N(CC(N)=O)[C@@H](C)c1ccccc1)[C@@H](C)c1ccccc1)[C@@H](C)c1ccccc1)[C@@H](C)c1ccccc1)[C@@H](C)c1ccccc1)c1ccccc1 [1B-NLys4,10, H-(Nspe-NLys-Nspe-NLys-NLys-Nspe)2-NH2] (H-[Nspe][Nlys][Nspe][Nlys][Nlys][Nspe][Nspe][Nlys][Nspe][Nlys][Nlys][Nspe]-NH2)", "unit symbol": "µg/mL", "reported value": 256}

The molecule listed as C[C@@H](c1ccccc1)N(CC(N)=O)C(=O)CN(C(=O)CN(CCCCN)C(=O)CN(Cc1ccccc1)C(=O)CN(Cc1ccccc1)C(=O)CN(CCCCN)C(=O)CN(C(=O)CN(C(=O)CN(CCCCN)C(=O)CN(Cc1ccccc1)C(=O)CN(Cc1ccccc1)C(=O)CNCCCCN)[C@@H](C)c1ccccc1)[C@@H](C)c1ccccc1)[C@@H](C)c1ccccc1 has a reported MIC of 8
